Here, each record is paired with measured pKi data.
biological target: STK10 (Homo sapiens, UniProt O94804); experiment: biochemical
Sequence (O94804 36-294 limits assumed): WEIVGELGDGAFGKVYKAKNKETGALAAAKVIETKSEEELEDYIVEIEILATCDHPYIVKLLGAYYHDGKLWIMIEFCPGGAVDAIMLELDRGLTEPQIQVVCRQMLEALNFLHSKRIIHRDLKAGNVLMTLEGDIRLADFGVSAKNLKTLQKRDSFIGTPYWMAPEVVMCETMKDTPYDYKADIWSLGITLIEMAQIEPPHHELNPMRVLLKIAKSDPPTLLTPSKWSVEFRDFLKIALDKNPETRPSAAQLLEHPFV
The value called pKi is obtained by taking minus log10 of the concentration in mol/L.

Some entries whose results are on file:
SMILES_STRUCTURE	QUANTITY_KIND	ENDPOINT_VALUE
C#Cc1cc(Nc2ncnc3ccc(I)cc23)ccc1Cl	pKi	6.00
C#Cc1cccc(Nc2ncnc3cc(OC)c(OC)cc23)c1F	pKi	6.60
C#Cc1ccc(F)c(Nc2ncnc3cc(OC)c(OC)cc23)c1	pKi	6.66
C#Cc1ccc(F)c(Nc2ncnc3ccc(I)cc23)c1	pKi	5.31
C#Cc1cc(Nc2ncnc3cc(OC)c(OC)cc23)ccc1Cl	pKi	7.12

// moving on: another record for pKi
stdin: Hi! What's the reported pKi for C#Cc1cc(Nc2ncnc3cc(C#N)ccc23)ccc1Cl on STK10 (Homo sapiens, UniProt O94804)?
stdout: 5.80
